test system: IL-5 production of mouse T cell strain EL-4 (TPA); test: Suppressive effect on the cytokine production of mouse T cell strain EL-4: IL-5; assay type: cell-based; settings: EL-4, TPA 10 ng/ml, 24 hours, ELISA
I'd appreciate it if you marked entries yes (1) when IC50 IL-5 is lower than 0.08 µg/mL and no (0) when it is not.

The following molecules have reported results that may help.
COc1cc(-c2ccc(OS(C)(=O)=O)cc2)c(OC)c(OS(C)(=O)=O)c1-c1ccc(OCc2ccccc2)c(C(N)=O)c1 = no (0)
COc1cc(-c2ccc(OCC=C(C)C)c(F)c2)c(OC)cc1-c1ccc(O)cc1 = yes (1)

Check if IC50 IL-5 falls below 0.08 µg/mL for COc1cc(-c2ccc(OS(C)(=O)=O)cc2)c(OC)c(OS(C)(=O)=O)c1-c1ccc(OCc2ccccc2)c(C=O)c1 .
no (0)

Check if IC50 IL-5 falls below 0.08 µg/mL for COc1cc(-c2ccc(C)cc2)c(OC)c(O)c1-c1ccc(OCCC=C(C)C)c(O)c1 .
no (0)

Check if IC50 IL-5 falls below 0.08 µg/mL for COC(=O)c1ccc(-c2cc(OC)c(-c3ccc(OCc4ccccc4)c(OS(C)(=O)=O)c3)c(OS(C)(=O)=O)c2OC)cc1 .
no (0)

Check if IC50 IL-5 falls below 0.08 µg/mL for COc1cc(-c2ccc(O)cc2)c(OC)c(O)c1-c1ccc(SCc2ccccn2)c(O)c1 .
yes (1)

Check if IC50 IL-5 falls below 0.08 µg/mL for COc1cc(-c2ccc(C(F)(F)F)cc2)c(OC)c(O)c1-c1ccc(OCC=C(C)C)c(O)c1 .
yes (1)

----------
tested on: IL-2 production of mouse T cell strain EL-4 (TPA); assay: Suppressive effect on the cytokine production of mouse T cell strain EL-4: IL-2; type: cell-based; conditions: EL-4, TPA 10 ng/ml, 24 hours, ELISA
This section presents molecules with their documented IC50 IL-2 values.

Would you please look over these solved cases?
COc1cc(-c2ccc(O)cc2)c(OC)c(O)c1-c1ccc(OC/C=C/CO)c(O)c1 [Compound I-296] = >1 µg/mL
COc1cc(-c2ccc(O)cc2)c(OC)c(O)c1-c1ccc(SCc2ccccn2)c(O)c1 [Compound I-223] = 1 µg/mL
COC(=O)c1ccc(-c2cc(OC)c(-c3ccc(OCc4ccccc4)c(OS(C)(=O)=O)c3)c(OS(C)(=O)=O)c2OC)cc1 [Compound I-238] = >1 µg/mL

Identify measured IC50 IL-2 associated with COc1cc(-c2ccc(F)cc2)c(OC)c(O)c1-c1ccc(OCc2ccccc2)c(O)c1 [Compound I-4]
>0.5 µg/mL

Identify measured IC50 IL-2 associated with COc1cc(-c2ccc(OCC=C(C)C)c(OS(C)(=O)=O)c2)c(OC)cc1-c1ccc(OS(C)(=O)=O)cc1 [Compound I-70]
>2 µg/mL

Identify measured IC50 IL-2 associated with COc1cc(-c2ccc(OS(C)(=O)=O)cc2)c(OC)c(OS(C)(=O)=O)c1-c1ccc(OCc2ccc3ccccc3n2)c(OS(C)(=O)=O)c1 [Compound I-307]
>1 µg/mL

Identify measured IC50 IL-2 associated with COc1cc(-c2ccc(SC)cc2)c(OC)c(O)c1-c1ccc(OCc2ccccc2)c(O)c1 [Compound I-233]
>1 µg/mL

Identify measured IC50 IL-2 associated with COc1cc(-c2ccc(F)cc2)c(OC)c(C=O)c1-c1ccc(OCC=C(C)C)c(F)c1 [Compound I-379]
>1 µg/mL

Identify measured IC50 IL-2 associated with COc1cc(-c2ccc(OS(C)(=O)=O)cc2)c(OC)c(OS(C)(=O)=O)c1-c1ccc(OS(=O)(=O)c2ccc(C)cc2)c(OS(C)(=O)=O)c1 [Compound I-395]
>1 µg/mL

Identify measured IC50 IL-2 associated with COc1cc(-c2c(OC)cc(-c3ccc(OS(C)(=O)=O)cc3)c(OC)c2CO)c(OC)cc1OCc1ccc(C)cc1 [Compound I-368]
>1 µg/mL
